test system: U251 CNS; experiment: NCI tumour cell line growth inhibition, 48 h
What TGI was measured for each of the following?

Input `COc1ccc(/C(Cl)=C(\C=O)c2ccc(OC)c(OC)c2)cc1OC` , output reported TGI.
> 100 µM

Please report TGI for the following molecule: CC1(C)CCCCCCCCCC(C)(CCCO)C1=O (configuration not stated)
30.4 µM

Kindly indicate its recorded TGI. Item: `CC(=O)NCCCCCCNC(C)=O`
> 10000 µM

Provide TGI value for the following molecule: O=C1NC(=O)C2(CCC(O)C2)c2cc[n+]([O-])cc21 (configuration not stated)
> 100 µM

# return recorded TGI for input CC(=O)OCC1OC(n2c3c(c(-c4ccc(Cl)cc4)c(C#N)c2=S)C(=O)CC(C)(C)C3)C(OC(C)=O)C(OC(C)=O)C1OC(C)=O (configuration not stated)
50.3 µM

Report TGI, nothing else, for this molecule: Cc1ccc(C2SCc3nc4ccc(C(=O)c5ccccc5)cc4n32)cc1 (configuration not stated)
> 83.7 µM

Note TGI for the molecule shown: CCCC(=O)NC(c1ccc2c(c1)OCO2)c1ccc2cccnc2c1O (configuration not stated)
> 100 µM

Read the entry `O=C(/C=C/c1c(O)ccc2ccccc12)c1cccc2ccccc12` and write its reported TGI.
> 100 µM

Report TGI, nothing else, for this molecule: CC(=O)OC1OC2C(NC(=O)OC(C)(C)C)C1CC2(OCc1ccccc1)OCc1ccccc1 (configuration not stated)
32.4 µM

Tell me measured TGI for `Cn1cnc([N+](=O)[O-])c1SCC(=O)O` please.
> 100 µM

Provide one value: measured TGI of `CC1(C)OC(=O)C(C)(C)OC1=O`
> 100 µM

Provide one value: measured TGI of `Cn1cnc2c(OCC3CCCCC3)nc(N)nc21`
> 100 µM

Please report TGI for the following molecule: `COc1cc(OC)c(OC)cc1/C=C1\C=Cc2ccccc21`
> 100 µM

Identify measured TGI associated with `O=c1oc2cc(O)ccc2c(O)c1C(c1ccccn1)c1c(O)c2ccc(O)cc2oc1=O`
> 100 µM

Determine from records and report TGI for `CCOC(=O)c1nc2ccc(Cl)cc2c2c1CCO2`
> 100 µM

Quote TGI reported for Cc1c(C2Cc3ccccc3N2C(=O)/C=C\C(=O)O)c2ccccc2n1C (configuration not stated) please.
40.6 µM

Give reported TGI value for `CN(C)CCOc1nc2c3cccnc3cc(-c3cccc(Cl)c3)c2c2ncccc12`
3.03 µM

Tell us which TGI value is on record for `O=C1/C(=C/c2ccc(Cl)cc2)NC(=S)N1CN1CCOCC1`
> 100 µM

For `CCOC(=O)C1=C(O)c2ccccc2C(=O)C1=O` , write its TGI.
> 100 µM

Please give the documented TGI of COC(=O)C1=C(c2cc(OC)c(OC)c(OC)c2)OC(c2cc(OC)c(OC)c(OC)c2)C1COC(C)=O (configuration not stated)
> 100 µM

Look up and state reported TGI for NC(=O)C12C3C4C1C1C2C3C41C(N)=O (configuration not stated)
> 100 µM

Dear colleague, please send me the reported TGI for NC1=CC(C(=O)c2ccncc2)c2nc3ccccc3nc21 (configuration not stated) when you can.
> 100 µM

Specify reported TGI for the molecule shown: COC1C=C(NCC2(CO)CCC2)NC(N)=N1 (configuration not stated)
> 100 µM

Supply reported TGI belonging to this molecule: OCC(O)COc1c(Cl)ccc(Cl)c1Cl (configuration not stated)
> 100 µM

Give the value of TGI reported for the following: `Cc1cnc2[nH]c(-c3ccc(F)cc3)cc(=O)c2c1`
> 91.8 µM

For the molecule `CN(/N=C/c1ccnc2ccccc12)c1ccc([N+](=O)[O-])cc1[N+](=O)[O-]` , report TGI.
> 100 µM

Please list TGI recorded for the molecule `CCOc1ccc(N/C(=C(/C(Cl)=C(/Cl)NCCO)[N+](=O)[O-])n2nnc3ccccc32)cc1`
58.7 µM

Output TGI of `O=C(NCCCNC(=O)OCc1ccc2c(Br)cc(Br)c(O)c2n1)OCc1ccc2c(Br)cc(Br)c(O)c2n1`
> 100 µM

Tell me its TGI given `CN(C)c1nc(N(C)C)n2nc(-c3ccccc3[N+](=O)[O-])nc2n1` as the entry.
> 100 µM

Give reported TGI value for `CCCCCCNC(=O)Oc1ccc(/C(=C(\C)c2ccccc2)c2ccc(OCCN3CCCCC3)cc2)cc1`
3.81 µM

Please give measured TGI of the following entry: `Cn1c(=O)c2c(nc(C[N+]3([O-])CCOCC3)n2C)n(C)c1=O`
> 100 µM

Find the measured TGI of `Cc1[nH]nc2c1N=C(c1ccccc1F)c1cc(C#N)ccc1N2` and report it.
4.64 µM

Fill in TGI for record CC(C)CC(CNC(Cc1ccc(Cl)cc1)C(N)=O)NC(=O)C(Cc1cnc[nH]1)NC(=O)CNC(=O)C(NC(=O)C(C)NC(=O)C(Cc1c[nH]c2ccccc12)NC(=O)C(CCC(=O)O)NC(=O)C(N)Cc1ccccc1)C(C)C (configuration not stated)
> 133 µM

Specify measured TGI for `COc1ccc(NC(=O)Nc2ccc(Nc3nc(C)cc(Nc4ccc(C)cc4)n3)cc2)cc1` .
3.21 µM

Report measured TGI; entry is `O=C(N=Nc1c(O)[nH]c2c(Cl)cc(Cl)cc12)c1ccncc1`
41.6 µM

Please give measured TGI of the following entry: `Cc1cc(S(=O)(=O)Nc2nc(N)nc(N3CCOCC3)n2)c(SCC(=O)O)cc1Cl`
> 10 µM

Could you please provide reported TGI for `c1ccc([C@@H]2N[C@@]3(CO[Si](c4ccccc4)(c4ccccc4)c4ccccc4)CC[C@H]4CN[C@@H]2[C@H]43)cc1` ? Thanks!
30.9 µM

Recall and state the measured TGI for `O=C1OC(c2ccccc2)=N/C1=C\c1c(O)cc(O)cc1O` .
> 100 µM

Identify measured TGI corresponding to CS(=O)c1ccc(-c2nc(-c3ccc(F)cc3)c(-c3ccncc3)[nH]2)cc1 (configuration not stated)
> 100 µM

Give TGI for `COc1ccc2c(c1OC)-c1c(c3ccc([N+](=O)[O-])cc3c(=O)n1CCCN=[N+]=[N-])C2=O`
> 100 µM

For the molecule `CCOC(=O)N1c2ccccc2S(=O)(=O)c2ccccc21` , report TGI.
> 100 µM

Give TGI for `O=C(c1ccco1)c1c(C(F)(F)F)nc2cc(C(F)(F)F)ccc2[n+]1[O-]`
> 100 µM
